Test system: HCC1143
Assay: normalised viability (% of control), CellTiter-Blue; higher = more viable cells (about 100 = DMSO control)
Conditions: 1000 nM; incubation time: 72 h
readout-kind: normalised viability (%)
Give the value, in units of %, as a plain number.

Below, 3 molecules whose answers are already recorded.
CN(N=O)C(=O)N[C@@H](C=O)[C@@H](O)[C@H](O)[C@H](O)CO [Streptozocin] = 97.4
NCC(=O)CCC(=O)O [Aminolevulinic acid] = 82.6
CNCc1ccc(-c2[nH]c3cc(F)cc4c3c2CCNC4=O)cc1 [Rucaparib] = 94.2

Tell me the measured normalised viability of CCN(CCCOc1ccc2c(Nc3cc(CC(=O)Nc4cccc(F)c4)[nH]n3)ncnc2c1)CCOP(=O)(O)O [Barasertib] , please. 85.9

Next up: Oc1nc(-c2ccc(C(F)(F)F)cc2)nc2c1CSCC2 [XAV-939] 81.9

---

Test system: MDA-MB-436
Assay: normalised viability (% of control), CellTiter-Blue; higher = more viable cells (about 100 = DMSO control)
Conditions: 100 nM; incubation time: 72 h
readout-kind: normalised viability (%)
Give the value, in units of %, as a plain number.

CC(C)Cn1cnc2c(N)nc3ccccc3c21 [Imiquimod] = 85.6
N.N.[Cl][Pt][Cl] [Cisplatin] = 89.8
C#Cc1cccc(Nc2ncnc3cc(OCCOC)c(OCCOC)cc23)c1 [Erlotinib] = 109

Quick check: normalised viability on MDA-MB-436, item O=C1CCC(N2C(=O)c3ccccc3C2=O)C(=O)N1 (stereo not given) [Thalidomide] ? 105

Next up: CCC1=C[C@@H]2CN(C1)Cc1c([nH]c3ccccc13)[C@@](C(=O)OC)(c1cc3c(cc1OC)N(C)[C@H]1[C@@](O)(C(=O)OC)[C@H](OC(C)=O)[C@]4(CC)C=CCN5CC[C@]31[C@@H]54)C2 [Vinorelbine] 56.8

---

Tested on: HCC1599
Assay: normalised response (% of control), CellTiter-Glo; higher = more viable cells (100 = DMSO, 0 = benzethonium chloride kill control)
Settings: incubation time: 72 h
Listed here are molecules together with their documented normalised response.
Give the value, in units of %, as a plain number.

Below, 8 molecules whose answers are already recorded.
CN(C)/N=N/c1[nH]cnc1C(N)=O [Dacarbazine] (100 nM) = 92
Cc1ccc(-n2nc(C(C)(C)C)cc2NC(=O)Nc2ccc(OCCN3CCOCC3)c3ccccc23)cc1 [Doramapimod] (100 nM) = 93.7
CCC1=C[C@@H]2CN(C1)Cc1c([nH]c3ccccc13)[C@@](C(=O)OC)(c1cc3c(cc1OC)N(C)[C@H]1[C@@](O)(C(=O)OC)[C@H](OC(C)=O)[C@]4(CC)C=CCN5CC[C@]31[C@@H]54)C2 [Vinorelbine] (100 nM) = 62.8
N#CCNC(=O)c1ccc(-c2ccnc(Nc3ccc(N4CCOCC4)cc3)n2)cc1 [Momelotinib] (100 nM) = 112
COc1cc([C@@H]2c3cc4c(cc3[C@@H](O[C@@H]3O[C@@H]5CO[C@@H](C)O[C@H]5[C@H](O)[C@H]3O)[C@H]3COC(=O)[C@H]23)OCO4)cc(OC)c1O [Etoposide] (100 nM) = 110
N[C@@H](CSC(c1ccccc1)(c1ccccc1)c1ccccc1)C(=O)O [S-trityl-L-cysteine] (400 nM) = 112
O=C1CCC(N2C(=O)c3ccccc3C2=O)C(=O)N1 (centres undefined) [Thalidomide] (100 nM) = 99.6
Oc1nc(-c2ccc(C(F)(F)F)cc2)nc2c1CSCC2 [XAV-939] (100 nM) = 92.3

Now take the following molecule into account.
Quick check: normalised response on HCC1599, item Clc1ccc(Nc2nnc(Cc3ccncc3)c3ccccc23)cc1 [Vatalanib] (100 nM) ? 109

Provenance of the data: the supplement of paper PMC4862054
